In this section, each of the molecules is paired with its reported fold change (FC).
targetOfAssay: Beta-secretase 1 (Homo sapiens, UniProt P56817)
Sequence (P56817 whole entry): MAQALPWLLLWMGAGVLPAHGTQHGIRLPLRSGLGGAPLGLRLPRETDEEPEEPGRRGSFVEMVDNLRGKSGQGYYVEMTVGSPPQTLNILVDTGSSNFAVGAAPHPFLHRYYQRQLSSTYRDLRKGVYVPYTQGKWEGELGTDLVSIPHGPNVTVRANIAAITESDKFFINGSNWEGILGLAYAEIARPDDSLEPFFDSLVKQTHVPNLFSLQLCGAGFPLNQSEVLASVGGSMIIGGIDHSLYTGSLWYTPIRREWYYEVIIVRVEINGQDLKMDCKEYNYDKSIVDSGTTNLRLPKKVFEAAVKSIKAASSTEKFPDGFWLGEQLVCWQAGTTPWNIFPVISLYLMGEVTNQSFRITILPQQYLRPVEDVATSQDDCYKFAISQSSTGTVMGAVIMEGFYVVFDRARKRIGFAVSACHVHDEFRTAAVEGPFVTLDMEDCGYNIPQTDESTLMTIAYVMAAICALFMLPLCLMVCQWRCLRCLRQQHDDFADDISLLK
protocol: Inhibition of BACE1 in human SH-SY5Y cells harboring wild type APP695 assessed as increase in alphaCTF level at 3 uM by Western blot method relative to chloroquine
Type: cell-based
Kindly provide the number alone.

A selection of reference data follows.
[
  {
    "structureSmilesString": "CN(C)Cc1ccccc1-c1ccc(NCCN2CCCCC2)c(OCCCCN2CCCCC2)c1",
    "reportedMeasurement": 4.4
  },
  {
    "structureSmilesString": "CN(C)Cc1ccccc1-c1ccc(NCCCCN2CCCCC2)c(OCCN2CCCCC2)c1",
    "reportedMeasurement": 4.2
  },
  {
    "structureSmilesString": "c1cc(CN2CCCCC2)cc(-c2ccc(NCCCN3CCCCC3)c(OCCN3CCCCC3)c2)c1",
    "reportedMeasurement": 3.3
  },
  {
    "structureSmilesString": "c1cc(-c2ccc(NCCCN3CCCCC3)c(OCCN3CCCCC3)c2)ccc1CN1CCCCC1",
    "reportedMeasurement": 2.6
  },
  {
    "structureSmilesString": "CN(C)Cc1ccccc1-c1ccc(NCCCN2CCCCC2)cc1",
    "reportedMeasurement": 0.9
  },
  {
    "structureSmilesString": "CN(C)Cc1ccccc1-c1ccc(NCCN2CCCCC2)c(OCCCN2CCCCC2)c1",
    "reportedMeasurement": 4.5
  },
  {
    "structureSmilesString": "c1ccc(-c2ccc(NCCCN3CCCCC3)c(OCCN3CCCCC3)c2)c(CN2CCCCC2)c1",
    "reportedMeasurement": 4.3
  },
  {
    "structureSmilesString": "Oc1c(CN2CCCC2)cc(Nc2ccnc3cc(Cl)ccc23)cc1CN1CCCC1",
    "reportedMeasurement": 2.1
  }
]

Input line: Can you look up fold change (FC) on Beta-secretase 1 (Homo sapiens, UniProt P56817) for CN(C)Cc1ccccc1-c1ccc(NCCCN2CCCCC2)c(OCCC2CCCCC2)c1 ?
Output line: 0.1

Input line: Can you look up fold change (FC) on Beta-secretase 1 (Homo sapiens, UniProt P56817) for CN(C)Cc1ccccc1-c1ccc(NCCCN2CCCCC2)c(OCCCN2CCCCC2)c1 ?
Output line: 4.5

Input line: Can you look up fold change (FC) on Beta-secretase 1 (Homo sapiens, UniProt P56817) for CC(C)CN(CCCN1CCN(CCCNc2nc3ccccc3[nH]2)CC1)CC(C)C ?
Output line: 1.3

Input line: Can you look up fold change (FC) on Beta-secretase 1 (Homo sapiens, UniProt P56817) for c1ccc(-c2ccc(NCCCN3CCCCC3)c(OCCN3CCCCC3)c2)cc1 ?
Output line: 2.4

Input line: Can you look up fold change (FC) on Beta-secretase 1 (Homo sapiens, UniProt P56817) for CN(C)Cc1ccccc1-c1cccc(OCCN2CCCCC2)c1 ?
Output line: 0.6

Input line: Can you look up fold change (FC) on Beta-secretase 1 (Homo sapiens, UniProt P56817) for CN(C)Cc1ccc(-c2ccc(NCCCN3CCCCC3)c(OCCN3CCCCC3)c2)cc1 ?
Output line: 2.1

Input line: Can you look up fold change (FC) on Beta-secretase 1 (Homo sapiens, UniProt P56817) for CN1CCN(Cc2ccccc2-c2ccc(NCCCN3CCCCC3)c(OCCN3CCCCC3)c2)CC1 ?
Output line: 5.1

Input line: Can you look up fold change (FC) on Beta-secretase 1 (Homo sapiens, UniProt P56817) for CN(C)Cc1ccccc1-c1ccc(NCCN2CCCCC2)c(OCCN2CCCCC2)c1 ?
Output line: 5

Input line: Can you look up fold change (FC) on Beta-secretase 1 (Homo sapiens, UniProt P56817) for c1ccc(-c2ccc(NCCCN3CCCCC3)c(OCCN3CCCCC3)c2)c(CN2CCOCC2)c1 ?
Output line: 3.1

Input line: Can you look up fold change (FC) on Beta-secretase 1 (Homo sapiens, UniProt P56817) for c1ccc(-c2cccc(OCCN3CCCCC3)c2)cc1 ?
Output line: 0.1

Input line: Can you look up fold change (FC) on Beta-secretase 1 (Homo sapiens, UniProt P56817) for CN(C)Cc1ccccc1-c1ccc(NCCCN2CCCCC2)c(OCCN2CCCCC2)c1 ?
Output line: 6.4

Input line: Can you look up fold change (FC) on Beta-secretase 1 (Homo sapiens, UniProt P56817) for CN(C)Cc1ccn(-c2ccc(NCCCN3CCCCC3)c(OCCN3CCCCC3)c2)c1 ?
Output line: 3.6

====

targetOfAssay: UniProtKB P56817
protocol: Inhibition of BACE1 in human SH-SY5Y cells harboring wild type APP695 assessed as reduction in amyloid beta (1 to 40) level after 24 hrs by ELISA method
propertyName: pIC50
Lab note: report pIC50 as minus log10 of the concentration in molar units, number only.

[
  {
    "structureSmilesString": "CN(C)Cc1ccccc1-c1ccc(NCCN2CCCCC2)c(OCCCN2CCCCC2)c1",
    "propertyName": "pIC50",
    "reportedMeasurement": 5.70
  },
  {
    "structureSmilesString": "CN(C)Cc1ccccc1-c1ccc(NCCCN2CCCCC2)cc1",
    "propertyName": "pIC50",
    "reportedMeasurement": 5.41
  },
  {
    "structureSmilesString": "Oc1c(CN2CCCC2)cc(Nc2ccnc3cc(Cl)ccc23)cc1CN1CCCC1",
    "propertyName": "pIC50",
    "reportedMeasurement": 5.29
  },
  {
    "structureSmilesString": "c1ccc(-c2ccc(NCCCN3CCCCC3)c(OCCN3CCCCC3)c2)c(CN2CCCCC2)c1",
    "propertyName": "pIC50",
    "reportedMeasurement": 5.59
  }
]

Input line: Recorded pIC50 for c1cc(CN2CCCCC2)cc(-c2ccc(NCCCN3CCCCC3)c(OCCN3CCCCC3)c2)c1 , please?
Output line: 5.37

Input line: Recorded pIC50 for CN(C)Cc1ccccc1-c1ccc(NCCN2CCCCC2)c(OCCN2CCCCC2)c1 , please?
Output line: 5.85

Input line: Recorded pIC50 for c1ccc(-c2ccc(NCCCN3CCCCC3)c(OCCN3CCCCC3)c2)cc1 , please?
Output line: 5.28

Input line: Recorded pIC50 for CN(C)Cc1ccccc1-c1cccc(OCCN2CCCCC2)c1 , please?
Output line: 5.82

Input line: Recorded pIC50 for CN(C)Cc1ccccc1-c1ccc(NCCCN2CCCCC2)c(OCCN2CCCCC2)c1 , please?
Output line: 5.55

====

targetOfAssay: Beta-secretase 1 (Homo sapiens)
protocol: Inhibition of BACE1 in human SH-SY5Y cells harboring wild type APP695 assessed as reduction in amyloid beta (1 to 40) level after 24 hrs by ELISA method
In this section, each of the molecules is paired with its reported pIC50.
Lab note: report pIC50 as minus log10 of the concentration in molar units, number only.

[
  {
    "structureSmilesString": "CC(C)CN(CCCN1CCN(CCCNc2nc3ccccc3[nH]2)CC1)CC(C)C",
    "pIC50": 5.77
  },
  {
    "structureSmilesString": "c1cc(-c2ccc(NCCCN3CCCCC3)c(OCCN3CCCCC3)c2)ccc1CN1CCCCC1",
    "pIC50": 5.68
  }
]

Input line: Recorded pIC50 for CN(C)Cc1ccccc1-c1ccc(NCCCCN2CCCCC2)c(OCCN2CCCCC2)c1 , please?
Output line: 5.77

Input line: Recorded pIC50 for CN(C)Cc1ccccc1-c1ccc(NCCCN2CCCCC2)c(OCCC2CCCCC2)c1 , please?
Output line: 5.68

Input line: Recorded pIC50 for CN(C)Cc1ccc(-c2ccc(NCCCN3CCCCC3)c(OCCN3CCCCC3)c2)cc1 , please?
Output line: 5.82

====

In this section, each of the compounds is paired with its reported fold change (FC).
targetOfAssay: Beta-secretase 1 (Homo sapiens, UniProt P56817)
protocol: Inhibition of BACE1 in human SH-SY5Y cells harboring wild type APP695 assessed as increase in AICD level at 3 uM by Western blot method relative to chloroquine
Type: cell-based
Kindly provide the number alone.

A selection of reference data follows.
[
  {
    "structureSmilesString": "Oc1c(CN2CCCC2)cc(Nc2ccnc3cc(Cl)ccc23)cc1CN1CCCC1",
    "targetOfAssay": "Beta-secretase 1 (Homo sapiens, UniProt P56817)",
    "fold change (FC)": 2.5
  },
  {
    "structureSmilesString": "c1ccc(-c2ccc(NCCCN3CCCCC3)c(OCCN3CCCCC3)c2)c(CN2CCCCC2)c1",
    "targetOfAssay": "Beta-secretase 1 (Homo sapiens, UniProt P56817)",
    "fold change (FC)": 2.7
  }
]

Input line: Can you look up fold change (FC) on Beta-secretase 1 (Homo sapiens, UniProt P56817) for CC(C)CN(CCCN1CCN(CCCNc2nc3ccccc3[nH]2)CC1)CC(C)C ?
Output line: 1.8

Input line: Can you look up fold change (FC) on Beta-secretase 1 (Homo sapiens, UniProt P56817) for CN(C)Cc1ccccc1-c1ccc(NCCCN2CCCCC2)c(OCCCN2CCCCC2)c1 ?
Output line: 5.1

Input line: Can you look up fold change (FC) on Beta-secretase 1 (Homo sapiens, UniProt P56817) for CN(C)Cc1ccc(-c2ccc(NCCCN3CCCCC3)c(OCCN3CCCCC3)c2)cc1 ?
Output line: 2.5

Input line: Can you look up fold change (FC) on Beta-secretase 1 (Homo sapiens, UniProt P56817) for CN(C)Cc1ccccc1-c1ccc(NCCCN2CCCCC2)cc1 ?
Output line: 0.8

Input line: Can you look up fold change (FC) on Beta-secretase 1 (Homo sapiens, UniProt P56817) for CN(C)Cc1ccccc1-c1ccc(NCCN2CCCCC2)c(OCCCCN2CCCCC2)c1 ?
Output line: 4.8

Input line: Can you look up fold change (FC) on Beta-secretase 1 (Homo sapiens, UniProt P56817) for CN(C)Cc1ccccc1-c1ccc(NCCCCN2CCCCC2)c(OCCN2CCCCC2)c1 ?
Output line: 3

Input line: Can you look up fold change (FC) on Beta-secretase 1 (Homo sapiens, UniProt P56817) for c1ccc(-c2cccc(OCCN3CCCCC3)c2)cc1 ?
Output line: 0.2
